# test.target: D3 receptor (Homo sapiens, UniProt P35462)
# Construct: expressed in transfected cells
# Sequence (P35462 whole entry): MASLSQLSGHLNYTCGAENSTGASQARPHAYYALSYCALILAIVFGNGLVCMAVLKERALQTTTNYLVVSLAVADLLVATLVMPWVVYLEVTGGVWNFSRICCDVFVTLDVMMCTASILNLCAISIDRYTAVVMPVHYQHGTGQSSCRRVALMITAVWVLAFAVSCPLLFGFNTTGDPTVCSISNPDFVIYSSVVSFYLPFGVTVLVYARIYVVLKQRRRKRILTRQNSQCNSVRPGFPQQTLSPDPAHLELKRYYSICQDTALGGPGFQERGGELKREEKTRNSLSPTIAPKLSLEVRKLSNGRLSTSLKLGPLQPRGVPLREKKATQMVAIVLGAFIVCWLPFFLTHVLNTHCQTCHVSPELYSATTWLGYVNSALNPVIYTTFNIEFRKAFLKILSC
# assay.name: cAMP content in cells stably expressing D3 receptors (CHO-D3, forskolin, HTRF)
# Type: cell-based
measured.attribute: EC50

O=C(N[C@H]1C[C@H](CCN2CCN(c3cccc(Cl)c3Cl)CC2)C1)c1ncco1 [Example 12A]	0.6 nM
O=C(NC1CC(CCN2CCN(c3cccc(Cl)c3Cl)CC2)C1)c1cccc2ncccc12 (stereo not shown)	1 nM
COCC(=O)NC1CC(CCN2CCN(c3cccc(Cl)c3Cl)CC2)C1 (stereo not shown)	2.2 nM

# input for lookup
// query For Cc1cc(C(=O)NC2CC(CCN3CCN(c4cccc(Cl)c4Cl)CC3)C2)on1 (stereo not shown) [Example 14A] , what is its reported EC50?
// result 0.9 nM

====

# assay.name: Solubility of hydrochloride and free base in different media (37°C, 24 hours, HPLC)
# Type: physicochemical
# details: thermodynamic from solid, FaSSIF
measured.attribute: solubility at 24 h

Cl.O=C(N[C@H]1C[C@H](CCN2CCN(c3cccc(Cl)c3Cl)CC2)C1)c1ncco1 [hydrochloride]	> 1000 µg/mL

# input for lookup
// query For O=C(N[C@H]1C[C@H](CCN2CCN(c3cccc(Cl)c3Cl)CC2)C1)c1ncco1 [crystal form B of free base] , what is its reported solubility at 24 h?
// result > 1000 µg/mL

====

// AUC(0-t) lookup, one value per entry
# assay.name: Pharmacokinetic assay in Balb/c mice (plasma and brain tissue)
# Type: in vivo
# details: male, mouse, po, Plasma, p.o. 5 mg/kg, read-out: Area under curve AUC0-t
Lab book: enter the figure in ng·h/mL, no units written.

Recorded results for 2 compounds are shown here.
CCN(C)C(=O)NC1CC(CCN2CCN(c3cccc4sccc34)CC2)C1 (stereo not drawn)	1480
O=C(N[C@H]1C[C@H](CCN2CCN(c3cccc(Cl)c3Cl)CC2)C1)C1(O)CC1	1420

# input for lookup
// query For O=C(N[C@H]1C[C@H](CCN2CCN(c3cccc(Cl)c3Cl)CC2)C1)c1cccc2ncccc12 [Example 19A] , what is its reported AUC(0-t)?
// result 456

====

// solubility at 24 h lookup, one value per entry
# assay.name: Solubility of hydrochloride and free base in different media (37°C, 24 hours, HPLC)
# Type: physicochemical
# details: simulated gastric fluid, thermodynamic from solid, Buffer pH 1

O=C(N[C@H]1C[C@H](CCN2CCN(c3cccc(Cl)c3Cl)CC2)C1)c1ncco1 [crystal form B of free base]	> 1000 µg/mL

// query For Cl.O=C(N[C@H]1C[C@H](CCN2CCN(c3cccc(Cl)c3Cl)CC2)C1)c1ncco1 [hydrochloride] , what is its reported solubility at 24 h?
// result > 1000 µg/mL

====

# test.target: D3 receptor (Homo sapiens, UniProt P35462)
# Construct: expressed in transfected cells
# assay.name: cAMP content in cells stably expressing D3 receptors (CHO-D3, forskolin, HTRF)
# Assay type: cell-based
measured.attribute: EC50 (nM)
Lab book: enter the figure in nM, no units written.

Cc1cnoc1C(=O)NC1CC(CCN2CCN(c3cccc(Cl)c3Cl)CC2)C1 (centres unmarked) [Example 13]	3.4
O=C(N[C@H]1C[C@H](CCN2CCN(c3cccc(Cl)c3Cl)CC2)C1)C1(O)CC1 [Example 6A]	0.6
CCN(C)C(=O)NC1CC(CCN2CCN(c3cccc4sccc34)CC2)C1 (centres unmarked) [Example 24]	0.9
Cc1nc(C(=O)NC2CC(CCN3CCN(c4cccc(Cl)c4Cl)CC3)C2)co1 (centres unmarked) [Example 18]	3.9
O=C(NC1CC(CCN2CCN(c3cccc(Cl)c3Cl)CC2)C1)c1ncco1 (centres unmarked) [Example 12]	1.7

// query For Cc1cc(C(=O)NC2CC(CCN3CCN(c4cccc(Cl)c4Cl)CC3)C2)on1 (centres unmarked) [Example 14] , what is its reported EC50?
// result 1.2

// query For CC(C)(O)C(=O)NC1CC(CCN2CCN(c3cccc(Cl)c3Cl)CC2)C1 (centres unmarked) [Example 4A] , what is its reported EC50?
// result 0.4

// query For Cc1ncc(C(=O)NC2CC(CCN3CCN(c4cccc(Cl)c4Cl)CC3)C2)o1 (centres unmarked) [Example 16A] , what is its reported EC50?
// result 1.7

// query For Cc1cnoc1C(=O)N[C@H]1C[C@H](CCN2CCN(c3cccc(Cl)c3Cl)CC2)C1 [Example 13A] , what is its reported EC50?
// result 1.1

====

# test.target: 5-HT2A receptor (Homo sapiens)
# Sequence (P28223 whole entry): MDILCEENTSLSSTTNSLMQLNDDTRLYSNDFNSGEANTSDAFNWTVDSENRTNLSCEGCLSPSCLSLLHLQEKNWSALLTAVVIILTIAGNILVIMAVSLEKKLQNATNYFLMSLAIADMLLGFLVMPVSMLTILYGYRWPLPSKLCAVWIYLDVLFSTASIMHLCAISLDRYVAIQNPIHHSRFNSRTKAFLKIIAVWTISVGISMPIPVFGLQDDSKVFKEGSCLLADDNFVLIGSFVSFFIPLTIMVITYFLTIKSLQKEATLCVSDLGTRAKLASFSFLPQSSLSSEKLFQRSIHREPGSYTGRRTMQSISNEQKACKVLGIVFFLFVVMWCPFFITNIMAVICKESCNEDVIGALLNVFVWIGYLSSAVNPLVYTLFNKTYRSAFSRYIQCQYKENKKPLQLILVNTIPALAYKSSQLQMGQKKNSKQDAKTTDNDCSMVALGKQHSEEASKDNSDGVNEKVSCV
# assay.name: Calcium ion mobility in cells stably expressing 5-HT2A receptors (Flp-In-CHO-5HT2A, FLIPR)
# Type: cell-based
# Set-up: expressed in transfected cells
# details: Flp-In-CHO-5HT2A stable pool, 5HT stimulation
measured.attribute: IC50 (nM)
Lab book: enter the figure in nM, no units written.

Recorded results for 3 compounds are shown here.
O=C(N[C@H]1C[C@H](CCN2CCN(c3cccc(Cl)c3Cl)CC2)C1)c1ccon1 [Example 17A]	20.8
Cc1cnoc1C(=O)NC1CC(CCN2CCN(c3cccc(Cl)c3Cl)CC2)C1 (centres unmarked)	10.9
COCC(=O)NC1CC(CCN2CCN(c3cccc(Cl)c3Cl)CC2)C1 (centres unmarked)	16.7

// query For CN(C(=O)NC1CC(CCN2CCN(c3cccc(Cl)c3Cl)CC2)C1)C1CC1 (centres unmarked) , what is its reported IC50?
// result 11.6

// query For Cc1cc(C(=O)NC2CC(CCN3CCN(c4cccc(Cl)c4Cl)CC3)C2)on1 (centres unmarked) [Example 14A] , what is its reported IC50?
// result 4.37

====

# assay.name: Solubility of hydrochloride and free base in different media (37°C, 24 hours, HPLC)
# Format: physicochemical
# details: simulated gastric fluid, thermodynamic from solid, Buffer pH 2
# Protocol: The glass bottle was shaken overnight on an electrothermal constant temperature shaking tank, and the temperature was set to 37°C. After 24 hours, the sample solution was filtered with a 0.45 µm mixed water fiber filter membrane, and the subsequent filtrate was taken to test its content by HPLC. HPLC detection methods are described in "Stability Study Conditions". Table 24 Solubility of hydrochloride and free base in different pH buffers
measured.attribute: solubility at 24 h

Cl.O=C(N[C@H]1C[C@H](CCN2CCN(c3cccc(Cl)c3Cl)CC2)C1)c1ncco1 [hydrochloride]	> 1000 µg/mL

# input for lookup
// query For O=C(N[C@H]1C[C@H](CCN2CCN(c3cccc(Cl)c3Cl)CC2)C1)c1ncco1 [crystal form B of free base] , what is its reported solubility at 24 h?
// result > 1000 µg/mL

====

// solubility at 24 h lookup, one value per entry
# assay.name: Solubility of hydrochloride and free base in different media (37°C, 24 hours, HPLC)
# Assay type: physicochemical
# details: aqueous buffer, thermodynamic from solid, Buffer pH 6
Lab book: enter the figure in µg/mL, no units written.

O=C(N[C@H]1C[C@H](CCN2CCN(c3cccc(Cl)c3Cl)CC2)C1)c1ncco1 [crystal form B of free base]	388

# input for lookup
// query For Cl.O=C(N[C@H]1C[C@H](CCN2CCN(c3cccc(Cl)c3Cl)CC2)C1)c1ncco1 [hydrochloride] , what is its reported solubility at 24 h?
// result 187

====

# assay.name: Pharmacokinetic assay in Balb/c mice (plasma and brain tissue)
# Type: in vivo
# details: male, mouse, po, Plasma, p.o. 5 mg/kg, read-out: Average residence time MRT
Flag rule - MRT less than 3 h flags class 1; the remaining entries get class 0.

Solved cases below.
O=C(NC1CC(CCN2CCN(c3cccc(Cl)c3Cl)CC2)C1)c1nccs1 (centres unmarked)	class 1
O=C(NC1CC(CCN2CCN(c3cccc(Cl)c3Cl)CC2)C1)c1ncco1 (centres unmarked)	class 0
O=C(N[C@H]1C[C@@H](CCN2CCN(c3cccc(Cl)c3Cl)CC2)C1)c1ncco1 [Example 12B]	class 1

// query Bench note: check whether `O=C(N[C@H]1C[C@@H](CCN2CCN(c3cccc(Cl)c3Cl)CC2)C1)C1(O)CC1` shows MRT below 3 h
// result class 1

// query Bench note: check whether O=C(NC1CC(CCN2CCCN(c3cccc(Cl)c3Cl)CC2)C1)c1ccco1 (centres unmarked) shows MRT below 3 h
// result class 0

// query Bench note: check whether O=C(N[C@H]1C[C@H](CCN2CCN(c3cccc(Cl)c3Cl)CC2)C1)c1cccc2ncccc12 [Example 19A] shows MRT below 3 h
// result class 1

// query Bench note: check whether CCN(C)C(=O)NC1CC(CCN2CCN(c3cccc4sccc34)CC2)C1 (centres unmarked) shows MRT below 3 h
// result class 0

// query Bench note: check whether O=C(N[C@H]1C[C@H](CCN2CCN(c3cccc(Cl)c3Cl)CC2)C1)c1ncco1 [Example 12A] shows MRT below 3 h
// result class 0

// query Bench note: check whether `O=C(N[C@H]1C[C@H](CCN2CCN(c3cccc(Cl)c3Cl)CC2)C1)C1(O)CC1` shows MRT below 3 h
// result class 1

// query Bench note: check whether O=C(NC1CC(CCN2CCN(c3cccc(Cl)c3Cl)CC2)C1)C1(O)CC1 (centres unmarked) shows MRT below 3 h
// result class 1

// query Bench note: check whether `O=C(N[C@H]1C[C@H](CCN2CCN(c3cccc(Cl)c3Cl)CC2)C1)c1nccs1` shows MRT below 3 h
// result class 0
